- System: colorectal tissue transcripts
- Measurement Description: SAGE of normal, adenoma and cancer colorectal tissue (transcript tag counts)
- Set-up: species or system human
- Experimental Parameters: normal colorectal tissue library 2
Parameter: NC2 (SAGE tag count). Scope: all listed entries.
Reply briefly: the number, and no unit.

See these solved cases before continuing.
TGAGTGACAG (chemistry not fully specified)    68
TATGATGAGC (chemistry not fully specified)    21
TACTCGGCCA (chemistry not fully specified)    5
TGGCCATCTG (chemistry not fully specified)    24
TCAGCTGCAA (chemistry not fully specified)    16

INPUT: I have this sequence here, TTTAACGGCC (chemistry not fully specified) , and I need its recorded NC2 (SAGE tag count).
OUTPUT: 67

INPUT: Entry to check: TGGCGCGTGT (chemistry not fully specified)
OUTPUT: 8

INPUT: // same read-out, input: TTATGGTGTG (chemistry not fully specified)
OUTPUT: 17

INPUT: Input TAATCCCAGC (chemistry not fully specified)
OUTPUT: 33

INPUT: Please answer likewise for TTCCGCGTTC (chemistry not fully specified)
OUTPUT: 16

INPUT: Moving on to TACGGTGTGG (chemistry not fully specified)
OUTPUT: 13

INPUT: And what about the sequence TTCTGGTGCG (chemistry not fully specified) ?
OUTPUT: 2
